Each recorded value in this set is attributed to PubChem BioAssay (NCI).

# Tested on: HCT-15 colon
# protocol-description: NCI tumour cell line growth inhibition, 48 h
value-kind: TGI

Find the measured TGI of COc1c(OC(C)=O)c(OC(C)=O)cc2c1-c1ccc(OC)c(=O)cc1C(NC(C)=O)CC2 (stereo unspecified) with HCT-15 colon as test system.
> 70 µM

Find the measured TGI of COc1ccc2c(c1)CCc1cnn(C3OC(COC(C)=O)C(OC(C)=O)C(OC(C)=O)C3OC(C)=O)c1-2 (stereo unspecified) with HCT-15 colon as test system.
> 100 µM

Find the measured TGI of COCC[N+](CCNC(=O)c1cccc2c(N)c3cccc(C)c3nc12)(CCOC)Cc1ccc([N+](=O)[O-])cc1 with HCT-15 colon as test system.
> 100 µM

Find the measured TGI of CC(C)(C)c1ccc(-c2nc3ccccc3c(=O)o2)cc1 with HCT-15 colon as test system.
> 100 µM

Find the measured TGI of O=c1n(CCCN2CCN(c3cccc(Cl)c3)CC2)nc2n1-c1ccc3ccccc3c1SC2 with HCT-15 colon as test system.
> 100 µM

Find the measured TGI of CC(C)=CCC[C@](C)(O)[C@H]1CC[C@]2(C)[C@@H]1[C@H](O)C[C@@H]1[C@@]3(C)CC[C@H](O[C@@H]4O[C@H](CO)[C@@H](O)[C@H](O)[C@H]4O)C(C)(C)[C@@H]3CC[C@]12C with HCT-15 colon as test system.
32.8 µM

====

# Test system: 786-0 renal
# protocol-description: NCI tumour cell line growth inhibition, 48 h; in the data active means GI50 below about 0.43 µM; inactive means the rest
The reply should be one of these categories: yes = active, no = inactive

Hi team, can someone confirm the assay call for CC1(C)CC[C@]2(C(=O)n3ccnc3)CC[C@]3(C)[C@H](C(=O)C=C4[C@@]5(C)C=C(C#N)C(=O)C(C)(C)[C@@H]5CC[C@]43C)[C@@H]2C1 ?
yes

Hi team, can someone confirm the assay call for O=C(/C=C/C=C/c1ccccc1)c1ccc(Nc2nc(Nc3ccccc3)nc(Nc3ccccc3)n2)cc1 ?
no

Hi team, can someone confirm the assay call for O=C(CSc1nc2ccc([N+](=O)[O-])cc2[nH]1)Nc1cccc(Cl)c1 ?
no

Hi team, can someone confirm the assay call for O=C(CCCCCCC(=O)N/N=C/c1ccc(N(c2ccccc2)c2ccccc2)cc1)NO ?
no

Hi team, can someone confirm the assay call for COc1ccc(C(=O)C(c2ccc(OC)cc2)C2C(=O)Oc3ccccc32)cc1 (stereo unspecified) ?
no

Hi team, can someone confirm the assay call for C[As](C)Sc1ccnc(S[As](C)C)n1 ?
no

Hi team, can someone confirm the assay call for COc1ccc(-c2cc(-c3ccc(O)cc3)nc3nc(=S)[nH]c(N)c23)cc1 ?
no

Hi team, can someone confirm the assay call for Fc1ccc(CNc2c3ccccc3nc3ccccc23)cc1 ?
no

Hi team, can someone confirm the assay call for O=S(=O)(O)c1ccc(Cl)cc1.[Cd] ?
no

Hi team, can someone confirm the assay call for C=CCCC(O)c1ccc(C(O)CCCCCCCCCCCC)o1 (stereo unspecified) ?
no

Hi team, can someone confirm the assay call for COc1cc(C(=O)NC2CCN(C)CC2)ccc1Nc1ncc2c(n1)N(C1CCCC1)CC(F)(F)C(=O)N2C ?
yes

====

# Test system: SN12C renal
# protocol-description: NCI tumour cell line growth inhibition, 48 h
value-kind: TGI

Name the recorded TGI of the compound listed here: Cc1ccc(S(=O)(=O)c2c(N)c3nccn3c3nc4ccccc4nc23)cc1
> 100 µM

Name the recorded TGI of the compound listed here: Cc1ccccc1N=Cc1ccc(N(CCC#N)S(=O)(=O)c2ccccc2)cc1
> 100 µM

Name the recorded TGI of the compound listed here: CS(=O)(=O)N1CCN(Cc2cc3nc(-c4cccc5[nH]ncc45)nc(N4CCOCC4)c3s2)CC1
> 100 µM

Name the recorded TGI of the compound listed here: COc1cc2c(c(N)c1OC)C(=O)/C(=C/c1cc(C)c(O)c(C)c1)C2
> 100 µM

Name the recorded TGI of the compound listed here: CCCCC(NC(=O)CC)C(=O)O (stereo not given)
> 100 µM

Name the recorded TGI of the compound listed here: O=C(CCCCC(=O)N/N=C\c1ccccc1Cl)N/N=C\c1ccccc1Cl
> 100 µM

Name the recorded TGI of the compound listed here: O=C(CCCCCCC(=O)N/N=C/c1ccc(N(c2ccccc2)c2ccccc2)cc1)NO
13.5 µM

Name the recorded TGI of the compound listed here: C[N+](C)(C)CCC(=O)N1C/C(=C\c2ccccc2)C(=O)/C(=C/c2ccccc2)C1
4.59 µM

Name the recorded TGI of the compound listed here: CCOC(=O)C1(Cc2ccccc2)Cc2cc3c(cc2C1=O)CCC3 (stereo not given)
> 100 µM

Name the recorded TGI of the compound listed here: O=C1C=C(c2c(-c3ccccc3)[nH]c3ccccc23)C(=O)N1c1ccccc1
22.5 µM

====

# Test system: MDA-MB-231 breast
# protocol-description: NCI tumour cell line growth inhibition, 48 h
value-kind: TGI

Name the recorded TGI of the molecule listed here: CN(C)CCCc1cccnc1
> 100 µM

Name the recorded TGI of the molecule listed here: CC1(C)CC[C@]2(C(=O)n3ccnc3)CC[C@]3(C)[C@H](C(=O)C=C4[C@@]5(C)C=C(C#N)C(=O)C(C)(C)[C@@H]5CC[C@]43C)[C@@H]2C1
0.0682 µM

Name the recorded TGI of the molecule listed here: COc1ccccc1CNCCCN1C(=O)c2ccc3c4c(ccc(c24)C1=O)C(=O)N(CCCNCCCCNCCCCN)C3=O
8.17 µM

Name the recorded TGI of the molecule listed here: COc1cc(C2SCC(=O)N2c2ccc(-c3ccc(-n4c(-c5ccccc5)nc5ccccc5c4=O)cc3)cc2)ccc1O (configuration not stated)
> 100 µM

Name the recorded TGI of the molecule listed here: C[C@H](CCC(=O)O[C@@H]1CC[C@@]2(C)C(CC[C@H]3[C@@H]4CC[C@H]([C@H](C)CCc5nc6ccccc6[nH]5)[C@@]4(C)CC[C@@H]32)C1)[C@H]1CC[C@H]2[C@@H]3CCC4C[C@H](O)CC[C@]4(C)[C@H]3CC[C@]12C (some centres not stated)
> 100 µM

Name the recorded TGI of the molecule listed here: CC1(C)CC(=O)C(CC(C(=O)C(=O)Nc2cc(C(F)(F)F)ccc2Cl)C(=O)c2ccco2)C(=O)C1 (configuration not stated)
> 100 µM

Name the recorded TGI of the molecule listed here: CC(C)c1ccc2c(N=Nc3ccc(S(N)(=O)=O)cc3)c(O)[nH]c2c1
> 25 µM

====

Give measured TGI for each item. Keep answers brief.
# System: UO-31 renal
# protocol-description: NCI tumour cell line growth inhibition, 48 h

Name the recorded TGI of the compound listed here: O=C(c1ccccc1)c1ccc(Cl)c([N+](=O)[O-])c1
5.34 µM

Name the recorded TGI of the compound listed here: O=C(O)CN(CC(=O)O)Cc1cc2c(cc1O)Oc1cc(O)c(CN(CC(=O)O)CC(=O)O)cc1C21OC(=O)c2ccccc21
> 100 µM

Name the recorded TGI of the compound listed here: CCN(CC)CCCC(C)NC(=O)c1cc(-c2nccn2C)nc2ccc(C)cc12 (stereo not drawn)
> 100 µM

Name the recorded TGI of the compound listed here: OC(c1ccc(F)cc1)C(F)(F)c1nc(-c2ccccc2)no1 (stereo not drawn)
35.4 µM

Name the recorded TGI of the compound listed here: Cc1cc2cc(Cl)ccc2nc1C(=O)c1ccccc1
> 100 µM

Name the recorded TGI of the compound listed here: CCOC(=O)C1(Cc2ccccc2)Cc2cc3c(cc2C1=O)CCC3 (stereo not drawn)
> 100 µM

Name the recorded TGI of the compound listed here: C[C@H](CCC(=O)O[C@@H]1CC[C@@]2(C)C(CC[C@H]3[C@@H]4CC[C@H]([C@H](C)CCc5nc6ccccc6[nH]5)[C@@]4(C)CC[C@@H]32)C1)[C@H]1CC[C@H]2[C@@H]3CCC4C[C@H](O)CC[C@]4(C)[C@H]3CC[C@]12C (stereo partly drawn)
> 100 µM

Name the recorded TGI of the compound listed here: C=C1C(=O)O[C@H]2[C@H]1CC/C(COC(=O)/C=C\C(=O)NCc1ccc(Cn3c(=O)sn(-c4ccc(OC)cc4)c3=O)cc1)=C\CC[C@@]1(C)O[C@@H]21
1.06 µM

====

Give measured TGI for each item. Keep answers brief.
# Test system: SF-295 CNS
# protocol-description: NCI tumour cell line growth inhibition, 48 h

Name the recorded TGI of the molecule listed here: CC(Oc1ccccc1)C(=O)NN (stereo unspecified)
> 100 µM

Name the recorded TGI of the molecule listed here: COC(=O)C1=C(C(=O)OC)SC(=C2c3ccsc3-c3sccc32)S1
53.5 µM

Name the recorded TGI of the molecule listed here: CN(C)CCCc1cccnc1
> 100 µM

Name the recorded TGI of the molecule listed here: COc1ccc(/C=C2\N=C(c3ccccc3)N(c3cc(C(F)(F)F)ccc3Cl)C2=O)cc1OC
> 100 µM

Name the recorded TGI of the molecule listed here: CC(C)c1ccc2c(N=Nc3ccc(S(N)(=O)=O)cc3)c(O)[nH]c2c1
> 25 µM

Name the recorded TGI of the molecule listed here: C[N+](C)(C)CCC(=O)N1C/C(=C\c2ccccc2)C(=O)/C(=C/c2ccccc2)C1
11.9 µM
